Documented melting point across a set of compounds
measuredEndpoint: melting point

[[record]]
linenotation = "CN1Cc2cc(-c3ccc(-c4cncc(NS(=O)(=O)c5ccc(-c6ccno6)s5)c4)s3)ccc2C1=O"
observedmeasurement = "245 to 249 °C"

[[record]]
linenotation = "CN1Cc2cc(-c3ccc(-c4cncc(NS(=O)(=O)c5cc(C(F)(F)F)cc(C(F)(F)F)c5)c4)s3)ccc2C1=O"
observedmeasurement = "299 to 302 °C"

[[record]]
linenotation = "CN1Cc2cc(-c3ccc(-c4cncc(NS(=O)(=O)c5ccc(Br)cc5Br)c4)s3)ccc2C1=O"
observedmeasurement = "276 to 279 °C"

[[record]]
linenotation = "CN1Cc2cc(-c3ccc(-c4cncc(NS(=O)(=O)c5ccccn5)c4)s3)ccc2C1=O"
observedmeasurement = "272 to 275 °C"

[[record]]
linenotation = "Cc1ccc(NS(=O)(=O)c2ccccn2)cc1-c1ccc(-c2ccc3c(c2)CN(C)C3=O)s1"
observedmeasurement = "274 to 277 °C"

[[record]]
linenotation = "CN1Cc2cc(-c3ccc(-c4cncc(NS(=O)(=O)c5ccc(Cl)cc5Cl)c4)s3)ccc2C1=O"
observedmeasurement = "282 to 285 °C"

[[record]]
linenotation = "CN1Cc2cc(-c3ccc(-c4cncc(NS(=O)(=O)c5cccc(OC(F)(F)F)c5)c4)s3)ccc2C1=O"
observedmeasurement = "230 to 232 °C"

[[record]]
linenotation = "CN1Cc2cc(-c3ccc(-c4cccc(NS(=O)(=O)c5ccc(F)cc5F)c4)s3)ccc2C1=O"
observedmeasurement = "260 to 262 °C"

[[record]]
linenotation = "CN1Cc2cc(-c3ccc(-c4ccc(OC(F)(F)F)c(NS(=O)(=O)c5ccccn5)c4)s3)ccc2C1=O"
observedmeasurement = "200 to 201 °C"

[[record]]
linenotation = "CN1Cc2cc(-c3ccc(-c4ccnc(NS(=O)(=O)c5ccc(F)cc5F)c4)s3)ccc2C1=O"
observedmeasurement = "235 to 239 °C"

[[record]]
linenotation = "CN1Cc2cc(-c3ccc(-c4cncc(NS(=O)(=O)c5ccc(I)cc5)c4)s3)ccc2C1=O"
observedmeasurement = "295 to 298 °C"

[[record]]
linenotation = "CN1Cc2cc(-c3ccc(-c4ccc(NS(=O)(=O)c5ccc(F)cc5F)nc4)s3)ccc2C1=O"
observedmeasurement = "269 to 272 °C"

[[record]]
linenotation = "CN1Cc2cc(-c3ccc(-c4cncc(S(=O)(=O)Nc5ccc(F)cc5F)c4)s3)ccc2C1=O"
observedmeasurement = "221 to 224 °C"

[[record]]
linenotation = "CN1Cc2cc(-c3ccc(-c4cncc(NS(=O)(=O)c5ccc(Br)cc5)c4)s3)ccc2C1=O"
observedmeasurement = "276 to 279 °C"

